Target: Ubiquitin carboxyl-terminal hydrolase 1 (Homo sapiens) (UniProt O94782)
Sequence (O94782 whole entry, looked up): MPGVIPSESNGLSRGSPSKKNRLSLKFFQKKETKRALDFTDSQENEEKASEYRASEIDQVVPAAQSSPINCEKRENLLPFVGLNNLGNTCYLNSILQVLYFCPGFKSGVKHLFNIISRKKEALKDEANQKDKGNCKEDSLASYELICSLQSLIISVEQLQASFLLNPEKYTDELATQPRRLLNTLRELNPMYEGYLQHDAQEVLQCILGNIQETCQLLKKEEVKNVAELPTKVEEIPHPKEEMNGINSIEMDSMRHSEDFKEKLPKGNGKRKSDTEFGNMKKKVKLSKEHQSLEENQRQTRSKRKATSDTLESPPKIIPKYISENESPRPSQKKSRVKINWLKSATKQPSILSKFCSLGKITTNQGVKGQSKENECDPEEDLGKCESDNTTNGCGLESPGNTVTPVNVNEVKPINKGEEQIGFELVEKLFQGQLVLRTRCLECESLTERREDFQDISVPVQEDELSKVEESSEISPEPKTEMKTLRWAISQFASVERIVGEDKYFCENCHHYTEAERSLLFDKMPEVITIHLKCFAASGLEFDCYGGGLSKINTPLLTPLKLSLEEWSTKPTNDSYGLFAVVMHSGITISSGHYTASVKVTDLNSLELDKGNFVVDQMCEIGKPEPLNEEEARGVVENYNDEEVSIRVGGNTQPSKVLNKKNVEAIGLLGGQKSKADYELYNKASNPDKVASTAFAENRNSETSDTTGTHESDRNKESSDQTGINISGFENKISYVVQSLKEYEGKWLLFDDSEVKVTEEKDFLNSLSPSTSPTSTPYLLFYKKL
Experiment: Inhibitors of USP1/UAF1: Pilot qHTS (AID 504865); note: nearly all actives have a fitted effect of over 35% in size
Settings: purified USP1/UAF1, Ub-rhodamine cleavage fluorescence; series mostly up to 54.9 µM
Results filed as inconclusive are left out. Activity calls are given as the source filed them. Calls come from the whole dose curve; as a rule, active = well fitted inhibition curve with a large enough effect; inconclusive = small, poorly fitted or top-dose-only effect; inactive = flat fitted curve, though single readings scatter.
Form entry, call: pick from active, inactive

Q: Please indicate how the test categorized `CS(=O)(=O)Nc1cccc(-c2cncnc2-n2ccnc2)c1` .
Result: inactive

Others:
Q: Please indicate how the test categorized `Cc1ccccc1-c1cc(N(C)Cc2ccco2)ncn1` .
Result: inactive

Q: For `CCNc1ncc2nc(-c3ccc(F)cc3)c(=O)n(-c3ccc(OC)cc3)c2n1` then?
Result: inactive

Q: For `FC(F)(F)c1ccccc1-c1ccc2ncnc(NCc3cccs3)c2c1` then?
Result: inactive

Q: For `O=C1C=C(O)c2ccccc2C1=O` then?
Result: active

Q: For `CC1(C)S[C@@H]2[C@H](NC(=O)[C@H](C(=O)O)c3ccsc3)C(=O)N2[C@H]1C(=O)O` then?
Result: inactive

Q: For `COc1cccc(-c2nc(NCc3cnc(C)cn3)c3ccccc3n2)c1` then?
Result: inactive

Q: For `COc1ccccc1-c1cncnc1Nc1ccccc1` then?
Result: inactive

Q: For `Cc1cnc(CNc2nc(-c3ccccc3Cl)nc3ccccc23)cn1` then?
Result: inactive

Q: For `CC(=O)NCCNc1ncnc2ccc(-c3ccccc3C(F)(F)F)cc12` then?
Result: inactive

Q: For `O=c1c(-c2ccccc2)coc2cc(O)cc(O)c12` then?
Result: active

Q: For `CN(Cc1ccco1)c1nc(-c2ccc3c(c2)OCO3)nc2ccccc12` then?
Result: inactive

Q: For `N#CCCn1c(=O)c(-c2ccc(Cl)cc2)nc2cnc(N3CCNCC3)nc21` then?
Result: inactive

Q: For `c1cncc(-c2ccc3ncnc(N4CCNCC4)c3c2)c1` then?
Result: inactive

Q: For `CN(C)c1ccc(-c2cncnc2Nc2ccc(F)cc2)cc1` then?
Result: inactive

Q: For `CN(Cc1ccco1)c1nc(-c2ccoc2)nc2ccccc12` then?
Result: inactive

Q: For `COc1cccc(-c2ccc3ncnc(N4CCOCC4)c3c2)c1` then?
Result: inactive

* * *

Target: Cytochrome P450 1A2 (Homo sapiens) (UniProt P05177)
Sequence (P05177 whole entry, looked up): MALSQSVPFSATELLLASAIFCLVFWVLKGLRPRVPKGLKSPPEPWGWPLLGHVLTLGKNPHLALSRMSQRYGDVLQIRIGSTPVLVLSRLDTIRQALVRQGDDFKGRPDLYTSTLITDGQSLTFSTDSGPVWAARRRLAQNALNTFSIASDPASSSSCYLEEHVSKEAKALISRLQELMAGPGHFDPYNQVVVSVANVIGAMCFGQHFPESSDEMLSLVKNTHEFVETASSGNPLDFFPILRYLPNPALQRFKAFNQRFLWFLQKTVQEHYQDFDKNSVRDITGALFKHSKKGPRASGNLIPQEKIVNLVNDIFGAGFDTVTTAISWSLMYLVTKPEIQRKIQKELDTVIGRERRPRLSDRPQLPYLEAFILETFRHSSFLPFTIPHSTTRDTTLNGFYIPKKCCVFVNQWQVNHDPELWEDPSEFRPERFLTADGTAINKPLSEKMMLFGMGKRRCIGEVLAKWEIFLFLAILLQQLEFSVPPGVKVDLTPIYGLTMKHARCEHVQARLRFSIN
Experiment: p450-cyp1a2 (AID 410); note: potency is the fitted concentration of half-maximal effect
Conditions: recombinant CYP1A2, luciferin-ME demethylation, luminescence; series mostly up to 57 µM
Protocol: The P450 gene superfamily is involved in metabolism and the clearance of xenobiotics. This assay used human CYP1A2 to measure the demethylation of luciferin 6' methyl ether (Luciferin-ME; Promega-Glo) to luciferin. The luciferin is then measured by luminescence after the addition of a luciferase detection regeant. Luciferin-ME concentration in the assay was equal to its Km for CYP1A2. NCGC Assay Protocol Summary: […]
Results filed as inconclusive are left out. Active and inactive are the calls of the source. Calls follow the shape of the full dose curve.
assayEndpoint: Potency

Some solved entries appear below for comparison.
Q: Data request, read-out Potency, for `Cc1noc(C)c1-c1nccc(NCc2ccccc2)n1`
Result: 0.794 µM (active)

Q: For `CN(C)c1ncc2nc(CCc3ccccc3)c(=O)n(C3CC3)c2n1` then?
Result: 3.16 µM (active)

Go through the items and report each one's Potency.
1. CN(C)C(=O)c1ccc(-c2nc(NCc3ccccc3)c3ccccc3n2)cc1
2. NC(=O)c1ccccc1-c1nc(-n2ccnc2)c2ccccc2n1

Result:
15.8 µM (active)
2.51 µM (active)

Go through the items and report each one's Potency.
1. CCCN[C@@H](C)C(=O)Nc1c(C)csc1C(=O)OC
2. CCNc1ncc2nc(-c3cccs3)c(=O)n(Cc3cccs3)c2n1

Result:
["12.6 µM (active)", "1.26 µM (active)"]
